Attribution: PubChem BioAssay AID1919002

Catalogue of compounds with associated IC50
System: 743489-274-T-PDC complex spheroid growth;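 also: spheroids exposed to agents for 7 days before readout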
ASSAY_SUMMARY: Anticancer human tumor 743489-274-T-PDC patient-derived renal cell carcinoma cell line growth inhibition [AhR]
TEST_CONDITIONS: curve of first compound; second compound 10 µM

COMPOUND	IC50
O=C(C=Cn1cnc(-c2cc(C(F)(F)F)cc(C(F)(F)F)c2)n1)NNc1cnccn1 + Cc1cncc(-c2nc(NCCc3c[nH]c4ccccc34)c3ncn(C(C)C)c3n2)c1	> 3000 nM

Name the reported IC50 value associated with the compound CC1COCCN1c1cc(C2(S(C)(=N)=O)CC2)nc(-c2ccnc3[nH]ccc23)n1 (stereo unspecified) + Cc1ccccc1N=Nc1ccc(NC(=O)c2ccnn2C)c(C)c1
> 10000 nM

// next record COc1cccc2c1C(=O)c1c(O)c3c(c(O)c1C2=O)CC(O)(C(=O)CO)CC3OC1CC(N)C(O)C(C)O1 (stereo unspecified) + Cc1cncc(-c2nc(NCCc3c[nH]c4ccccc34)c3ncn(C(C)C)c3n2)c1
825 nM

Request: COc1cc(C2c3cc4c(cc3C(OC3OC5COC(C)OC5C(O)C3O)C3COC(=O)C23)OCO4)cc(OC)c1O (stereo unspecified) + Cc1ccccc1N=Nc1ccc(NC(=O)c2ccnn2C)c(C)c1
> 10000 nM

Okay, and O=C(C=Cc1cccc(S(=O)(=O)Nc2ccccc2)c1)NO + Cc1ccccc1N=Nc1ccc(NC(=O)c2ccnn2C)c(C)c1 ?
1240 nM

Repeat with Cn1ncnc1C1c2n[nH]c(=O)c3cc(F)cc(c23)NC1c1ccc(F)cc1 (stereo unspecified) + Cc1cncc(-c2nc(NCCc3c[nH]c4ccccc34)c3ncn(C(C)C)c3n2)c1
> 100 nM
